- test system: human A2a receptor (Homo sapiens, UniProt P29274)
- Construct: purchased Perkin-Elmer RBHA2AM400UA; host or cells: HEK293 cells, used as a membrane preparation
- Sequence (P29274 whole entry): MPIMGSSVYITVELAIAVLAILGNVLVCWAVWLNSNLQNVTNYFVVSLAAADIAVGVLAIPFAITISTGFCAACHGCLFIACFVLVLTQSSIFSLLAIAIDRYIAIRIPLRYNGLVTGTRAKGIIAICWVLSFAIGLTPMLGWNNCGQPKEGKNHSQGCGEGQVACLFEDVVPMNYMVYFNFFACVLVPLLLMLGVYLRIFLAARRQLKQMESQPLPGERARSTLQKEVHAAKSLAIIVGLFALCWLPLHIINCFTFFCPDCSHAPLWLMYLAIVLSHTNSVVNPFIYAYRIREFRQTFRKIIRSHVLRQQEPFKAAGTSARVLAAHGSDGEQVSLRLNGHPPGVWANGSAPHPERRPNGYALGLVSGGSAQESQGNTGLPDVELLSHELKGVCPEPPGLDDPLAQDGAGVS
- assay info: A2a receptor competition binding assay (Scintillation Proximity)
- condition notes: membranes from HEK293 cells expressing human A2a receptor; 0.5 nM tritiated ligand; Cheng-Prusoff; read-out: A2a Ki
measurement label: log10 of Ki (log10 of the value in nM)
All values: log10 Ki [nM].

In the examples that follow, each entry is paired with its recorded log10 of Ki.
CC(=O)N1CCC2(CCN(C(=O)c3cn4c(N)nc5c(F)cccc5c4n3)C2)C1 (stereo not drawn) = 1.51
CC1(O)CCN(Cc2cn3c(N)nc4ccccc4c3n2)CC1 = 3.39
Nc1nc2c(F)cccc2c2nc(C(=O)NCc3cccc(N4CCN(c5ccc(F)cc5F)CC4)c3)cn12 = 0.86
Nc1nc2c(F)cccc2c2nc(CCc3ccccc3)cn12 = 0.64
COc1cccc2c1nc(N)n1cc(Cc3ccc(N4CCN(C(C)=O)CC4)nc3)nc21 = 0.66

Lab note: each molecule below needs its log10 of Ki filled in.
1. COc1cccc2c1nc(N)n1cc(C(=O)N3CCC4(CC3)COC4)nc21
2. COc1cccc2c1nc(N)n1cc(Cc3cccc4c3CCN(C(=O)CCC(F)(F)F)C4)nc21
3. COc1cccc2c1nc(N)n1cc(C(=O)N3CCC4(CCCC4)C3)nc21
4. Nc1nc2c(F)cccc2c2nc(C(=O)NCc3ccccc3OC3CCN(c4ccccn4)CC3)cn12

1: 2.04; 2: 0.30; 3: 1.04; 4: 0.46
